target: Cyclin-dependent kinase 8 (Homo sapiens); test: Inhibition of CDK8 in human SW480 cells assessed as reduction in IFN-gamma induced STAT1 phosphorylation at Ser727 residues preincubated for 2 hrs followed by IFN-gamma addition measured after 1 hr by In-cell western assay
quantity-kind: EC50

Guide cases for EC50, answers given:
>>> endpoint_result("Cn1cc(-c2ccncc2/C=C/C(=O)Nc2ccc(CN3C4CCC3COC4)cc2)cn1")
"17 nM"
>>> endpoint_result("O=C(/C=C/c1cnccc1-c1cnn(C2CC2)c1)Nc1ccc(CN2CC3CC2CO3)cc1 (centres undefined)")
"3.1 nM"
>>> endpoint_result("NC(=O)c1ccc(-c2ccncc2/C=C/C(=O)Nc2ccc(CN3CCOCC3)cc2)s1")
"690 nM"

Challenge: Name the reported EC50 value associated with the compound CC1CN(Cc2ccc(NC(=O)/C=C/c3cnccc3-c3cnn(C)c3)cc2)CCO1 (centres undefined)
Response given: 16 nM

Challenge: Name the reported EC50 value associated with the compound Cn1cc(-c2ccncc2/C=C/C(=O)Nc2ccc(CN3CCOCC3)cc2)cn1
Response given: 13 nM

Challenge: Name the reported EC50 value associated with the compound Cn1cnc2ccc(-c3ccncc3/C=C/C(=O)Nc3ccc(CN4CCOCC4)cc3)cc21
Response given: 2.4 nM

* * *

The following molecules are listed with their measured pIC50 values.
biological target: Cyclin-C/Cyclin-dependent kinase 19 (Homo sapiens); experiment: Inhibition of kinase tracer 236 binding to GST-tagged CDK19/CycC (unknown origin) after 60 min by TR-FRET assay
Sequence (Q9BWU1 whole entry): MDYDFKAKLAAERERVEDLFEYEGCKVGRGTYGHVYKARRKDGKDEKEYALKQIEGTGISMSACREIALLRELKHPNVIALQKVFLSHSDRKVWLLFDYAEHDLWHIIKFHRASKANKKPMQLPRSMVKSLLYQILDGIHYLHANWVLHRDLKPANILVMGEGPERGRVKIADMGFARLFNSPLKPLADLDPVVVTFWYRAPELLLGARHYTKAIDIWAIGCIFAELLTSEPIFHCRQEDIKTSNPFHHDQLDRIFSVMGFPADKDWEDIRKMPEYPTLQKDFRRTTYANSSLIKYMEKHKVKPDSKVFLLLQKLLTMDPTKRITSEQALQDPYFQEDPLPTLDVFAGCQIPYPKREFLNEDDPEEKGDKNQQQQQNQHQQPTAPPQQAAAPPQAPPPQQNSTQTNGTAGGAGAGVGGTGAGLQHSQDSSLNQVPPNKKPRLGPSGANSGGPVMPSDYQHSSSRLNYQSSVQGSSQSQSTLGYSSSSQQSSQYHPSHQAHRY
Sequence (P24863 whole entry, further chain): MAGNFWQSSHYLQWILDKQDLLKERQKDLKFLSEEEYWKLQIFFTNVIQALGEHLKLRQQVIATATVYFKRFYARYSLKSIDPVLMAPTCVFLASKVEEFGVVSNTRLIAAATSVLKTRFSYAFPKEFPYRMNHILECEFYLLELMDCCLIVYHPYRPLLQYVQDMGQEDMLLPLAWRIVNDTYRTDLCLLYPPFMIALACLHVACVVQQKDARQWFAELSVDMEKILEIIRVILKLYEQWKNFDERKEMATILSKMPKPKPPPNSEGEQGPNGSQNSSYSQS
In textbook form, pIC50 equals minus log to base ten of the concentration in mol/L.

>>> endpoint_result("O=C(/C=C/c1cnccc1-c1cnn(C2CC2)c1)Nc1ccc(CN2CCOCC2)cc1")
8.12
>>> endpoint_result("O=C(/C=C/c1cnccc1-c1cn[nH]c1)Nc1ccc(CN2CCOCC2)cc1")
7.00
>>> endpoint_result("Cn1cc(-c2ccncc2CCC(=O)Nc2ccc(CN3CCOCC3)cc2)cn1")
7.30
>>> endpoint_result("Cn1cc(-c2ccncc2/C=C/C(=O)Nc2ccc(CN3CCOCC3)cc2)cn1")
7.82

Please find the next molecule below.
Challenge: Name the reported pIC50 value associated with the molecule O=C(CCc1cnccc1-c1cnn(C2CC2)c1)Nc1ccc(CN2CCOCC2)cc1
Response given: 7.39

* * *

assay: Solubility of the compound at pH 6.8; format: physicochemical; settings: buffer
The following compounds are listed with their measured solubility values.
Your answer should be a plain number; it is taken to be in µg/mL.

Challenge: Name the reported solubility value associated with the compound Cn1cc(-c2ccncc2/C=C/C(=O)Nc2ccccc2)cn1
Response given: 26

Challenge: Name the reported solubility value associated with the compound Cn1cc(-c2ccncc2/C=C/C(=O)Nc2ccc(CN3CCOCC3)cc2)cn1
Response given: 68

* * *

target: Cyclin-dependent kinase 8 (Homo sapiens, UniProt P49336); assay: Inhibition of CDK8 in human SW480 cells assessed as reduction in IFN-gamma induced STAT1 phosphorylation at Ser727 residues preincubated for 2 hrs followed by IFN-gamma addition measured after 1 hr by In-cell western assay
Sequence (P49336 whole entry): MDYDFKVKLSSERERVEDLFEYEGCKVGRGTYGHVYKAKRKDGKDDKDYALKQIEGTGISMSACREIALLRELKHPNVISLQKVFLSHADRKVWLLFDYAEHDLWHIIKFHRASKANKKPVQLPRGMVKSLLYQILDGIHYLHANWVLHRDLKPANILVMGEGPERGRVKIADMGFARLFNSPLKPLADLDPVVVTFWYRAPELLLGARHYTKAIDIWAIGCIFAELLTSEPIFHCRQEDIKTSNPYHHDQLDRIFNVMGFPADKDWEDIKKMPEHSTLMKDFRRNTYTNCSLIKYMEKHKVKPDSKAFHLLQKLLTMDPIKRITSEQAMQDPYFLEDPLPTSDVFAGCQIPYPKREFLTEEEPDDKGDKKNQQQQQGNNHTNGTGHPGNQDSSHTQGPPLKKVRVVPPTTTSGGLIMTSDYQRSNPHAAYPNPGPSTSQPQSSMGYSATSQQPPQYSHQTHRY
The following compounds are listed with their measured EC50 values.
Your answer should be a plain number; it is taken to be in µM.

>>> endpoint_result("O=C(/C=C/c1cnccc1-c1ccc2[nH]cnc2c1)Nc1ccc(CN2CCOCC2)cc1")
0.01
>>> endpoint_result("CC1COCCN1Cc1ccc(NC(=O)/C=C/c2cnccc2-c2cnn(C)c2)cc1 (stereo not given)")
0.027
>>> endpoint_result("O=C(/C=C/c1cnccc1-c1cnn(C2CC2)c1)Nc1ccc(CN2CCOCC2)cc1")
0.011

Challenge: Name the reported EC50 value associated with the compound COc1ccc(-c2ccncc2/C=C/C(=O)Nc2ccc(CN3CCOCC3)cc2)s1
Response given: 0.097

Challenge: Name the reported EC50 value associated with the compound Cn1cc(-c2c(F)cncc2/C=C/C(=O)Nc2ccc(CN3CCOCC3)cc2)cn1
Response given: 0.0036

Challenge: Name the reported EC50 value associated with the compound Cn1cc(-c2ccncc2/C=C/C(=O)Nc2ccc(CN3CC4CC3CO4)cc2)cn1 (stereo not given)
Response given: 0.019

Challenge: Name the reported EC50 value associated with the compound Cn1cc(-c2ccncc2/C=C/C(=O)Nc2ccccc2)cn1
Response given: 0.11

Challenge: Name the reported EC50 value associated with the compound O=C(/C=C/c1cnccc1-c1cnn(Cc2ccccc2)c1)Nc1ccc(CN2CCOCC2)cc1
Response given: 0.028

* * *

assay: Oral bioavailability in mouse at 1 mg/kg administered as cassette dose measured up to 8 hrs by LC/MS/MS analysis; type: ADME, organism-based; conditions: in vivo
quantity-kind: bioavailability (%)
Your answer should be a plain number; it is taken to be in %.

>>> endpoint_result("O=C(/C=C/c1cnccc1-c1cnn(Cc2ccccc2)c1)Nc1ccc(CN2CCOCC2)cc1")
15.5

Challenge: Name the reported bioavailability value associated with the molecule O=C(/C=C/c1cnccc1-c1cnn(C2CC2)c1)Nc1ccc(CN2CC(F)(F)C2)cc1
Response given: 22.5

Challenge: Name the reported bioavailability value associated with the molecule Cn1cc(-c2ccncc2/C=C/C(=O)Nc2ccc(CN3CCOCC3)cc2)cn1
Response given: 21.9

Challenge: Name the reported bioavailability value associated with the molecule O=C(/C=C/c1cnccc1-c1cnn(C2CC2)c1)Nc1ccc(CN2CCOCC2)cc1
Response given: 51.2

* * *

molecular target: CDK8/Cyclin C (Homo sapiens, UniProt P49336); assay: Inhibition of kinase tracer 236 binding to full length N terminal GST-tagged human CDK8 (1 to 464 end residues) /CycC ( 1 to 283 end residues) expressed in baculovirus expression system after 60 min by TR-FRET assay
Sequence (P24863 whole entry, one chain of several, further chain): as the sequence (P24863 whole entry, further chain) above
The following compounds are listed with their measured log10 IC50 values.
Scale: decimal log of IC50, IC50 in nM.

Challenge: Name the reported log10 IC50 value associated with the compound O=C(/C=C/c1cnccc1-c1cnn(C2CC2)c1)Nc1ccc(CN2CC3CC2CO3)cc1 (stereo not given)
Response given: 0.98

Challenge: Name the reported log10 IC50 value associated with the compound Cn1cc(-c2ccncc2/C=C/C(=O)Nc2ccccc2)cn1
Response given: 1.71

* * *

biological target: CDK8/Cyclin C (Homo sapiens, UniProt P49336); assay: Inhibition of kinase tracer 236 binding to full length N terminal GST-tagged human CDK8 (1 to 464 end residues) /CycC ( 1 to 283 end residues) expressed in baculovirus expression system after 60 min by TR-FRET assay
quantity-kind: IC50 (nM)
Your answer should be a plain number; it is taken to be in nM.

Guide cases for IC50, answers given:
>>> endpoint_result("O=C(/C=C/c1cnccc1-c1cnn(C2CC2)c1)Nc1ccc(CN2CC3CC(C2)O3)cc1")
6.7
>>> endpoint_result("O=C(/C=C/c1cncc(F)c1-c1cnn(C2CC2)c1)Nc1ccc(CN2CCOCC2)cc1")
6.5

Please find the next compound below.
Challenge: Name the reported IC50 value associated with the compound COc1ncc(-c2ccncc2/C=C/C(=O)Nc2ccc(CN3CCOCC3)cc2)s1
Response given: 8.1

* * *

system: Liver; assay: Intrinsic clearance in mouse liver microsomes at 1 umol/L after 15 to 30 mins in presence of NADPH by LC/MS/MS analysis; type: ADME, microsome; conditions: 1 µM
intrinsic clearance below 80 µL/min/mg gives false (0); intrinsic clearance at or above it gives true (1).

>>> classification("O=C(/C=C/c1cnccc1-c1cnn(C2CC2)c1)Nc1ccc(CN2CCOCC2)cc1")
"false (0)"

Challenge: hey, is intrinsic clearance for this one >= 80 µL/min/mg? O=C(/C=C/c1cnccc1-c1cnn(C2CC2)c1)Nc1ccc(CN2CC(F)(F)C2)cc1
Response given: true (1)

Challenge: hey, is intrinsic clearance for this one >= 80 µL/min/mg? O=C(/C=C/c1cnccc1-c1cn[nH]c1)Nc1ccc(CN2CCOCC2)cc1
Response given: false (0)

Challenge: hey, is intrinsic clearance for this one >= 80 µL/min/mg? O=C(/C=C/c1cnccc1-c1cnn(Cc2ccccc2)c1)Nc1ccc(CN2CCOCC2)cc1
Response given: true (1)

Challenge: hey, is intrinsic clearance for this one >= 80 µL/min/mg? Cn1cc(-c2ccncc2/C=C/C(=O)Nc2ccc(CN3CCOCC3)cc2)cn1
Response given: false (0)

* * *

target: UniProt P08684; test: Time-dependent inhibition of CYP3A4 in human liver microsomes assessed as reduction in testosterone to 6beta-hydroxytestosterone conversion by measuring remaining activity at 30 uM preincubated for 60 mins followed by testosterone addition measured after 20 mins in presence of NADPH by UPLC analysis relative to control; format: ADME; conditions: probe testosterone (6beta-hydroxylation), read-out: Activity
Sequence (P08684 whole entry): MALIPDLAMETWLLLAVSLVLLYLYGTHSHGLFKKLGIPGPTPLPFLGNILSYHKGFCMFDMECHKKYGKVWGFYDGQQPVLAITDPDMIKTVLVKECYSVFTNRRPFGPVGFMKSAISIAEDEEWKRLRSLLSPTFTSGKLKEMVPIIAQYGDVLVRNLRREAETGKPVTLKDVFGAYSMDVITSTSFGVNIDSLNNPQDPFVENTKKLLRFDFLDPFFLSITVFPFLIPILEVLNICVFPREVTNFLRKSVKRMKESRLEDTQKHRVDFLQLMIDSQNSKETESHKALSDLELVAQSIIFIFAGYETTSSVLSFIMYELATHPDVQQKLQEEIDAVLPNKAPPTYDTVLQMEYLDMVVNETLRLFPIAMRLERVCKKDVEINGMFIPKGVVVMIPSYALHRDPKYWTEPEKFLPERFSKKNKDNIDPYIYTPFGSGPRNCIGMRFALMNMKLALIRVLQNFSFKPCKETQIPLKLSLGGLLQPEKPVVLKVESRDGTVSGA
activity at 20 min, 30 µM below 60% gives not fulfilled; activity at 20 min, 30 µM at or above it gives fulfilled.

Challenge: hey, is activity at 20 min, 30 µM for this one >= 60%? O=C(/C=C/c1cnccc1-c1cnn(C2CC2)c1)Nc1ccc2c(c1)CCN(CC(F)(F)F)C2
Response given: fulfilled

Challenge: hey, is activity at 20 min, 30 µM for this one >= 60%? O=C(/C=C/c1cncc(F)c1-c1cnn(C2CC2)c1)Nc1ccc(CN2CCOCC2)cc1
Response given: not fulfilled

Challenge: hey, is activity at 20 min, 30 µM for this one >= 60%? Cn1cc(-c2ccncc2/C=C/C(=O)Nc2ccc3c(c2)CN(CC(F)(F)F)CC3)cn1
Response given: not fulfilled

Challenge: hey, is activity at 20 min, 30 µM for this one >= 60%? CC1CN(Cc2ccc(NC(=O)/C=C/c3cnccc3-c3cnn(C)c3)cc2)CCO1 (stereo not given)
Response given: fulfilled

Challenge: hey, is activity at 20 min, 30 µM for this one >= 60%? Cn1cc(-c2ccnc(O)c2/C=C/C(=O)Nc2ccc(CN3CCOCC3)cc2)cn1
Response given: fulfilled
